# targetUnderTest: T1, RIG-I wild type (UniProt O95786 1-925)
# T1 sequence: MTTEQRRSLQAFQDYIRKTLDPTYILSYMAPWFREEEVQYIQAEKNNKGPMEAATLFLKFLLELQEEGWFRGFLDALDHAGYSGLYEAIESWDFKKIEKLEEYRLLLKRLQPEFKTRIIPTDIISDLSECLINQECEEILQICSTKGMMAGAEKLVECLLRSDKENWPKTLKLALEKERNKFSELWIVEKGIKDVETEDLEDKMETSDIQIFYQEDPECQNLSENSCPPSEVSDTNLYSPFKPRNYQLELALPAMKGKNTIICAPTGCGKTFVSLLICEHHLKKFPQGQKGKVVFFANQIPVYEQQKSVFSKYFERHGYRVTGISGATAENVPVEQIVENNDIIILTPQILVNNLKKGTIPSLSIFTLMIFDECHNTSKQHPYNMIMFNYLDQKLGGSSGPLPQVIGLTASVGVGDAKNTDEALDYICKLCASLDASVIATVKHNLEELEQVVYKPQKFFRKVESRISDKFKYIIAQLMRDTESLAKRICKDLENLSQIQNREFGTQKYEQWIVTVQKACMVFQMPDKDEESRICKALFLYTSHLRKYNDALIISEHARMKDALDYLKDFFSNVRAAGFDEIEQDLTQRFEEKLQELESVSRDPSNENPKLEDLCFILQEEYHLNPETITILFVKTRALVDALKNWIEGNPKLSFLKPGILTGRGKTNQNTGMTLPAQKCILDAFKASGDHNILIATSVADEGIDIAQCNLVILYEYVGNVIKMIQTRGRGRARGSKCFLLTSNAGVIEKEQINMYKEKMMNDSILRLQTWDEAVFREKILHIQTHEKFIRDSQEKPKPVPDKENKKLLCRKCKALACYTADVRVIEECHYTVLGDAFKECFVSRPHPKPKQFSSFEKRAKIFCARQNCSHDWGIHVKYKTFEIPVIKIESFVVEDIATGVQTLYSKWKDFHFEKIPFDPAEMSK
# protocolSummary: ATPase titration or fluorescence titration
readoutLabel: pKd
Worth noting: pKd values are minus log10 of concentrations stated in mol/L.

**Q:** // query pKd value for entry 5'ppp dsRNA 27 bp (dsRNA, 5'-triphosphate on strand 1) RNA 1: AUACGUCCUGAUAGUUAGUAUCCAUCG RNA 2: CGAUGGAUACUAACUAUCAGGACGUAU
**A:** 8.60
